All values here come from patent US20250171438A1.

# STUDY_SYSTEM: human PAH with the R408W mutation (Homo sapiens, UniProt P00439, R408W)
# Construct: expressed in transfected cells
# Sequence (P00439 1-452 R408W): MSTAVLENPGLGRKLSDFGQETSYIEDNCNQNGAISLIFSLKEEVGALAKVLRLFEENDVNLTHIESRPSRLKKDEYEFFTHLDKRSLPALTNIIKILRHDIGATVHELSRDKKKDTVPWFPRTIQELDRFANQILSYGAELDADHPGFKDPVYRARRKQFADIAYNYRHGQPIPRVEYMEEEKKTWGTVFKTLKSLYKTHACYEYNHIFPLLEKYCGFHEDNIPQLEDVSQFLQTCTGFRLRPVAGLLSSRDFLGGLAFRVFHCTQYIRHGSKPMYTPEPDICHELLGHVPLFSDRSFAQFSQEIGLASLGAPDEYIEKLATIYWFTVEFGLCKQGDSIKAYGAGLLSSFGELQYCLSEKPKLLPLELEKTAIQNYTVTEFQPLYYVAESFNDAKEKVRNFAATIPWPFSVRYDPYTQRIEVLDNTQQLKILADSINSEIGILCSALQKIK
# METHOD_SUMMARY: Cell Based Phenylalanine Flux Assay
# CONDITIONS_USED: A375 cells expressing human R408W PAH; 24 hrs compound incubation; 13C-Tyrosine by LC-MS; average where tested multiple times; read-out: AC50
Overview of reported AC50 across a group of molecules:

Known AC50 results, listed for orientation:
- MOLECULE: "O=C(Cc1nc(C(F)(F)F)cs1)N1CCc2[nH]cnc2[C@H]1c1nc2ccccc2s1 [Example 1033]"
  AC50: "500 to 1000 nM"
- MOLECULE: "O=C(c1nnc(-c2ccc(F)cn2)o1)N1CCc2[nH]cnc2[C@H]1c1nc2ccccc2s1 (single isomer, unassigned) [Example 1365]"
  AC50: "< 500 nM"
- MOLECULE: "CC(O)c1nc(Br)c(C(=O)N2CCc3[nH]cnc3[C@@H]2c2nc3c(F)cccc3s2)o1 (single isomer, unassigned) [Example 2059]"
  AC50: "1000 to 5000 nM"
- MOLECULE: "Cc1nc(C(C)(C)C)oc1C(=O)N1CCc2[nH]cnc2[C@H]1c1nc2ccccc2s1 [Example 1431]"
  AC50: "< 500 nM"
- MOLECULE: "CC[C@H](O)c1nc(C(F)F)c(C(=O)N2CCc3[nH]cnc3[C@@H]2c2nc3c(F)cccc3s2)o1 [Example 2064]"
  AC50: "1000 to 5000 nM"

Consider the molecule O=C(c1nnc(-c2ccc(F)cc2F)o1)N1CCc2[nH]cnc2[C@H]1c1nc2c(F)cccc2s1 [Example 1876] and give its measured AC50. < 500 nM

Consider the molecule O=C(c1cnn2ccc(F)cc12)N1CCc2[nH]cnc2[C@H]1c1nc2ccccc2s1 [Example 1103] and give its measured AC50. 500 to 1000 nM

---

# STUDY_SYSTEM: human PAH with the R408W mutation (Homo sapiens, UniProt P00439, R408W)
# Construct: expressed in transfected cells
# Sequence (P00439 1-452 R408W): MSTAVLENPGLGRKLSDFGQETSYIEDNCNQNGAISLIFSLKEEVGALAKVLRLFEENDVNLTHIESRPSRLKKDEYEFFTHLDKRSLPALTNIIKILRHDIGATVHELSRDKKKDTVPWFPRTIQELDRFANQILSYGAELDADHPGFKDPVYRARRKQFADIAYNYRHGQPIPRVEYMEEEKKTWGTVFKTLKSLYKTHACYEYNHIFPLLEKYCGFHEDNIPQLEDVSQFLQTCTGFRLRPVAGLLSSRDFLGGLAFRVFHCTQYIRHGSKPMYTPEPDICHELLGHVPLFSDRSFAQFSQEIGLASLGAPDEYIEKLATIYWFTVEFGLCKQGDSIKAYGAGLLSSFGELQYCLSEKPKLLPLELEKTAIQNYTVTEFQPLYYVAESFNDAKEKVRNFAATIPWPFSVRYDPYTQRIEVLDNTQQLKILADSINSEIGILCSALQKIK
# METHOD_SUMMARY: Cell Based Phenylalanine Flux Assay
# CONDITIONS_USED: A375 cells expressing human R408W PAH; 24 hrs with compound; 13C-Tyrosine by LC-MS; average where tested multiple times; read-out: AC50
Overview of reported AC50 across a group of compounds:

Known AC50 results, listed for orientation:
- COMPOUND: "O=C(c1cnn2cc(N3CCCC3)ccc12)N1CCc2[nH]cnc2C1c1nc2ccccc2s1 (centres unmarked)"
  TEST_VALUE: "> 5 µM"
- COMPOUND: "O=C(c1n[nH]c2ccccc12)N1CCc2[nH]cnc2C1c1nc2c(F)cccc2s1 (centres unmarked)"
  TEST_VALUE: "1 to 5 µM"

Consider the compound O=C(c1cnn2cc(Cl)ccc12)N1CCc2nc[nH]c2C1c1nc2cc(F)ccc2s1 (centres unmarked) and give its measured AC50. 1 to 5 µM

Consider the compound Cn1ncc(C(=O)N2CCc3[nH]cnc3C2c2nc3c(C(F)(F)F)cccc3s2)c1C(F)F (centres unmarked) and give its measured AC50. 1 to 5 µM

Consider the compound Cc1nnc(C(=O)N2CCc3[nH]cnc3C2c2nc3cc(Br)ccc3[nH]2)s1 (centres unmarked) and give its measured AC50. > 5 µM

Consider the compound Cn1ncc(C(=O)N2CCc3[nH]cnc3C2c2nc3ccccc3s2)n1 (centres unmarked) and give its measured AC50. 1 to 5 µM

Consider the compound Cc1nc(-c2ccccn2)oc1C(=O)N1CC(C)c2[nH]cnc2C1c1nc2ccccc2s1 (centres unmarked) and give its measured AC50. 1 to 5 µM

---

# STUDY_SYSTEM: human PAH with the R408W mutation (Homo sapiens, UniProt P00439, R408W)
# Construct: expressed in transfected cells
# METHOD_SUMMARY: Cell Based Phenylalanine Flux Assay
# CONDITIONS_USED: A375 cells expressing human R408W PAH; 24 hrs compound incubation; 13C-Tyrosine by LC-MS; average where tested multiple times; read-out: AC50
PROPERTY_LABEL: AC50

Known AC50 results, listed for orientation:
- INPUT_SMILES: "O=C(c1ccnn1C(F)F)N1CCc2[nH]cnc2[C@@H]1c1nc2ccccc2s1"
  STUDY_SYSTEM: "human PAH with the R408W mutation (Homo sapiens, UniProt P00439, R408W)"
  AC50: "1 to 5 µM"
- INPUT_SMILES: "O=C(c1ncn2ccccc12)N1CCc2[nH]cnc2[C@@H]1c1nc2cccc(F)c2s1"
  STUDY_SYSTEM: "human PAH with the R408W mutation (Homo sapiens, UniProt P00439, R408W)"
  AC50: "1 to 5 µM"
- INPUT_SMILES: "CC(C)(O)c1ccc2c(C(=O)N3CCc4[nH]cnc4[C@H]3c3nc4c(F)cccc4s3)cnn2c1"
  STUDY_SYSTEM: "human PAH with the R408W mutation (Homo sapiens, UniProt P00439, R408W)"
  AC50: "< 0.5 µM"

# input for lookup
Consider the compound CC(=O)Cn1cc(C(=O)N2CCc3[nH]cnc3[C@@H]2c2nc3c(F)cccc3s2)c(Cl)n1 and give its measured AC50. > 5 µM

---

# STUDY_SYSTEM: human PAH with the R408W mutation (Homo sapiens, UniProt P00439, R408W)
# Construct: expressed in transfected cells
# METHOD_SUMMARY: Cell Based Phenylalanine Flux Assay
# CONDITIONS_USED: A375 cells expressing human R408W PAH; 24 hrs compound incubation; 13C-Tyrosine by LC-MS; average where tested multiple times; read-out: AC50
Overview of reported AC50 across a group of compounds:

Known AC50 results, listed for orientation:
- COMPOUND: "O=C(c1cnn(CC2CC(F)(F)C2)c1Cl)N1CCc2[nH]cnc2[C@@H]1c1nc2c(F)cccc2s1 [Example 1990]"
  STUDY_SYSTEM: "human PAH with the R408W mutation (Homo sapiens, UniProt P00439, R408W)"
  AC50: "1000 to 5000 nM"
- COMPOUND: "O=C(c1nnc(-c2ccccn2)o1)N1CCc2[nH]cnc2[C@@H]1c1nc2ccc(F)cc2s1 [Example 1719]"
  STUDY_SYSTEM: "human PAH with the R408W mutation (Homo sapiens, UniProt P00439, R408W)"
  AC50: "1000 to 5000 nM"
- COMPOUND: "Cn1nc(C(C)(C)C#N)nc1C(=O)N1CCc2[nH]cnc2[C@H]1c1nc2ccccc2s1 [Example 2045]"
  STUDY_SYSTEM: "human PAH with the R408W mutation (Homo sapiens, UniProt P00439, R408W)"
  AC50: "1000 to 5000 nM"
- COMPOUND: "Cc1n[nH]cc1-c1nnc(C(=O)N2CCc3[nH]cnc3[C@@H]2c2nc3ccccc3s2)o1 [Example 1942]"
  STUDY_SYSTEM: "human PAH with the R408W mutation (Homo sapiens, UniProt P00439, R408W)"
  AC50: "1000 to 5000 nM"
- COMPOUND: "O=C(c1nnc(-c2cc(C(F)(F)F)ccn2)o1)N1CCc2[nH]cnc2[C@@H]1c1nc2c(F)cccc2s1 [Example 1905]"
  STUDY_SYSTEM: "human PAH with the R408W mutation (Homo sapiens, UniProt P00439, R408W)"
  AC50: "500 to 1000 nM"

State its AC50 on human PAH with the R408W mutation (Homo sapiens, UniProt P00439, R408W): O=C(c1oc(C2CC2)nc1C(F)(F)F)N1CCc2[nH]cnc2[C@@H]1c1nc2c(F)cccc2s1 [Example 2184] < 500 nM

State its AC50 on human PAH with the R408W mutation (Homo sapiens, UniProt P00439, R408W): O=C(c1ccnn1C(F)(F)F)N1CCc2[nH]cnc2[C@H]1c1nc2c(F)cccc2s1 [Example 2099] < 500 nM
